Test system: HCT-15 colon
Assay: NCI-60 one-dose screen, 48 h
Settings: 10 µM unless noted
About 83,000 compounds went through this panel and 20% of them were active in at least one assay; those are over-represented in the sample as a whole. Calls of active or inactive are those of the source. Rule for the calls: active = growth percent below 10; inactive = the rest.
// allowed return values: YES for active, NO for inactive

stdin: How did this test come out for Cc1oc2nc[nH]c(=O)c2c1C(=O)/C=C/c1ccc(Cl)cc1Cl ?
stdout: NO

stdin: How did this test come out for C#CCN1C(=O)/C(=c2\sc3n(c2=O)NC2C(N=3)N(CC)C(=O)N2CC)c2ccccc21 (configuration not stated) ?
stdout: NO

stdin: How did this test come out for O=C(O)C(=Cc1c2ccccc2cc2ccccc12)C(=O)O ?
stdout: NO

stdin: How did this test come out for COc1ccc(OC)c(/C=C2\Oc3cc(OCCN4CCCC4)ccc3C2=O)c1 ?
stdout: NO

stdin: How did this test come out for O=c1[nH]c(-c2cn(-c3ccc(Cl)cc3)nn2)nc2ccccc12 ?
stdout: NO

stdin: How did this test come out for Cc1cccc2cc(/C=C/C(=O)/C=C/c3ccc(Cl)cc3)c(=O)[nH]c12 ?
stdout: NO

stdin: How did this test come out for COc1cc(C2C=C(C)N=C3SC(C)=NN32)cc(OC)c1OC (configuration not stated) ?
stdout: NO

stdin: How did this test come out for CSc1nc(-c2cc3ccccc3o2)cc(-c2ccc(Cl)cc2)c1C#N ?
stdout: NO

stdin: How did this test come out for COc1cc(/C=C/C(=O)c2ccccc2O)ccc1OCCCOc1cc2c(cc1OC)C(=O)N1CCC[C@H]1C=N2 ?
stdout: YES

stdin: How did this test come out for COc1cc(C2CC(c3c(C)[n+]([O-])c4ccccc4[n+]3[O-])=NN2)cc(OC)c1OC (configuration not stated) ?
stdout: NO

stdin: How did this test come out for C/C(=N\NC(=O)CC#N)c1cc2cc(Cl)ccc2o1 ?
stdout: NO

stdin: How did this test come out for COc1ccc(-n2cnc3c(sc4ncc(Cl)cc43)c2=O)cc1 ?
stdout: NO

stdin: How did this test come out for COc1ncc(-c2ccc3ncnc(Nc4cccc(Cl)c4)c3c2)cc1N(S(C)(=O)=O)S(C)(=O)=O ?
stdout: NO

stdin: How did this test come out for CC1=C(C#N)C(C)(C)C(C#N)=C(C)N1 ?
stdout: NO

stdin: How did this test come out for CCN(Cc1ccc(CN(CC)C(=O)C(Cl)(Cl)Cl)cc1)C(=O)C(Cl)(Cl)Cl ?
stdout: NO

stdin: How did this test come out for Cc1nc2scc(-c3ccccc3)n2c(=O)c1CCO ?
stdout: NO

stdin: How did this test come out for C/C1=C\CCC2(C)OC2CC2CCC(C)(O)C(CC1)C2(C)C (configuration not stated) ?
stdout: NO

stdin: How did this test come out for O=C(NNC(=S)Nc1ccccc1)c1ccccn1 ?
stdout: NO

stdin: How did this test come out for COc1cc(OC)cc(-c2n[nH]nc2-c2ccc3c(c2)OCO3)c1 ?
stdout: NO

stdin: How did this test come out for Cc1cc(Nc2nc(C(=O)Nc3ccccc3)nc3ccccc23)n[nH]1 ?
stdout: NO

stdin: How did this test come out for O=C(CSc1nc(-c2ccc(Cl)cc2)cn1-c1ccc(Cl)cc1)c1ccc(Br)cc1 ?
stdout: NO

stdin: How did this test come out for NC(=O)c1cccc(N2Cc3ccccc3OC3=C2C(=O)c2c(O)ccc(O)c2C3=O)c1 ?
stdout: YES

stdin: How did this test come out for CCSc1nnc(NC(=O)COc2ccc(Cl)cc2C)s1 ?
stdout: NO

stdin: How did this test come out for C=CCOc1ccc(/C(O)=C2\C(=O)C(=O)N(c3nccs3)C2c2ccccc2F)cc1 (configuration not stated) ?
stdout: NO

stdin: How did this test come out for COc1ncc(-c2ccc3ncnc(Nc4cccc(Cl)c4)c3c2)cc1NS(=O)(=O)CCN1CCOCC1 ?
stdout: YES

stdin: How did this test come out for C=C1C(=O)O[C@H]2[C@H]1CC/C(COC(=O)NCc1ccc(OC)cc1)=C\CC[C@@]1(C)O[C@@H]21 ?
stdout: NO

stdin: How did this test come out for CCCCCCCCCCC/C=C\C[C@H](O)C/C=C1/C(=O)C=C[C@@H]1C/C=C\CCCC(=O)OC ?
stdout: YES

stdin: How did this test come out for O=S(=O)(NCCCNc1cc(-c2cn(-c3ccccc3)nc2-c2cccc(O)c2)ccn1)c1ccc(Br)cc1 ?
stdout: YES

stdin: How did this test come out for CCSc1nnc(Nc2ccc(C(C)C)cc2)s1 ?
stdout: NO

stdin: How did this test come out for COc1cc(OC)c(C(=O)/C=C/c2cccc(C(F)(F)F)c2)c(OC)c1 ?
stdout: YES

stdin: How did this test come out for COc1cc(Cn2c(SCC(=O)Nc3cc(OC)c(OC)c(OC)c3)nc3ccccc3c2=O)cc(OC)c1OC ?
stdout: NO

stdin: How did this test come out for Cc1ccc(Cn2c(-c3nonc3N)nc3ccccc32)cc1 ?
stdout: NO

stdin: How did this test come out for CC1=CNNc2c3ncnc-3ncn21 ?
stdout: NO

stdin: How did this test come out for CCCCCCCCCCCCCCCCC(Br)C(=O)O (configuration not stated) ?
stdout: NO

stdin: How did this test come out for Nc1c(C(=O)Nc2ccccc2)sc2nc3c(cc12)CCCCC3 ?
stdout: NO

stdin: How did this test come out for COc1ccc(C2=CC(c3ccc(Oc4ccnc5cc(Cl)ccc45)c(OC)c3)c3c(nc(OC)[nH]c3=O)N2)cc1 (configuration not stated) ?
stdout: NO

stdin: How did this test come out for c1ccc2nc(-c3ccc4ccccc4n3)ccc2c1 ?
stdout: NO

stdin: How did this test come out for Cc1c(C2=NNC(c3ccc4c(c3)OCO4)C2)[n+]([O-])c2ccccc2[n+]1[O-] (configuration not stated) ?
stdout: NO

stdin: How did this test come out for O=S(=O)(O)CCl ?
stdout: NO

stdin: How did this test come out for COc1cc(NC(=O)CSc2nc3ccc(C)cc3c(=O)n2-c2ccccc2)cc(OC)c1OC ?
stdout: NO

stdin: How did this test come out for CN(C)c1ccc(-c2ccc(-c3ccc(C(=N)N)cn3)o2)cc1 ?
stdout: YES

stdin: How did this test come out for COc1ccc(NC(=O)/N=c2\oc3c(OC)cccc3cc2-c2cc3ccccc3[nH]2)cc1 ?
stdout: NO
